We begin with a simple list: items and their reported MIC.
Tested on: Pseudomonas aeruginosa
MEASUREMENT_NOTES: Antimicrobial activity against Pseudomonas aeruginosa by two-fold serial dilution technique
Format: functional

Reference set (2 entries):
COMPOUND	REPORTED_METRIC	RESULT
Cc1cc2ncn(CC(O)COc3ccc4c(C)cc(=O)oc4c3)c2cc1C (stereo not drawn)	MIC	64 µg/mL
Cc1cc(=O)oc2cc(OCC(O)Cn3nnc4ccccc43)ccc12 (stereo not drawn)	MIC	32 µg/mL

Sure, the documented MIC for Cc1cc2ncn(CC(O)COc3cc4oc(=O)cc(C)c4cc3OCC(O)Cn3cnc4cc(C)c(C)cc43)c2cc1C (stereo not drawn) is 16 µg/mL

The recorded MIC for Cc1cc(=O)oc2cc(OCC3CO3)ccc12 (stereo not drawn) is 8 µg/mL

// field: MIC; key: Cc1cc(=O)oc2cc(OCC(O)Cn3cncn3)ccc12 (stereo not drawn) ; value = 4 µg/mL

Per the records, this compound ( Cc1cc(=O)oc2cc(OCC(O)CSc3nc4ccccc4[nH]3)c(OCC(O)CSc3nc4ccccc4[nH]3)cc12 (stereo not drawn) ) has MIC equal to 16 µg/mL

Form: compound = Cc1cc(=O)oc2cc(OCC(O)Cn3cncn3)c(OCC(O)Cn3cncn3)cc12 (stereo not drawn) ; MIC = 32 µg/mL

Measured MIC, `CCn1cc(C(=O)O)c(=O)c2cc(F)c(N3CCNCC3)cc21` : 1 µg/mL

Cc1cc(=O)oc2cc(OCC(O)Cn3cnc4ccccc43)c(OCC(O)Cn3cnc4ccccc43)cc12 (stereo not drawn) has a reported MIC of 128 µg/mL

The compound listed as Cc1cc(=O)oc2cc(OCC(O)Cn3nnc4ccccc43)c(OCC(O)Cn3nnc4ccccc43)cc12 (stereo not drawn) has a reported MIC of 32 µg/mL

MIC reading for Cc1cc(=O)oc2cc(OCC3CO3)cc(OCC3CO3)c12 (stereo not drawn) : 8 µg/mL

The compound identified as Cc1cc(=O)oc2cc(OCC(O)Cn3cnc4ccccc43)ccc12 (stereo not drawn) registered its MIC at > 512 µg/mL

For this compound ( Cc1cc(=O)oc2cc(OCC(O)CSc3nc4ccccc4[nH]3)ccc12 (stereo not drawn) ), measured MIC is 64 µg/mL

###

System: Bacillus subtilis
MEASUREMENT_NOTES: Antimicrobial activity against Bacillus subtilis by two-fold serial dilution technique
Assay type: functional
The following compounds are shown together with reported MIC values.

For orientation, consider the following solved cases.
COMPOUND	MIC
Cc1cc(=O)oc2cc(OCC(O)Cn3cnc4ccccc43)c(OCC(O)Cn3cnc4ccccc43)cc12 (stereo not drawn)	> 512 µg/mL
Cc1cc2ncn(CC(O)COc3ccc4c(C)cc(=O)oc4c3)c2cc1C (stereo not drawn)	128 µg/mL
Cc1cc(=O)oc2cc(OCC(O)Cn3cncn3)c(OCC(O)Cn3cncn3)cc12 (stereo not drawn)	16 µg/mL
Cc1cc(=O)oc2cc(OCC3CO3)ccc12 (stereo not drawn)	2 µg/mL
Cc1cc2ncn(CC(O)COc3cc4oc(=O)cc(C)c4cc3OCC(O)Cn3cnc4cc(C)c(C)cc43)c2cc1C (stereo not drawn)	128 µg/mL

For the next question, use this compound.
Recorded result, Cc1cc(=O)oc2cc(OCC(O)CSc3nc4ccccc4[nH]3)ccc12 (stereo not drawn) , MIC: 32 µg/mL

Where these numbers come from: ChEMBL document CHEMBL3352064
